system: 171881-019-R-J1-PDC complex spheroid growth, % test/control; test: Anticancer human tumor 171881-019-R-J1-PDC patient-derived invasive breast carcinoma cell line growth inhibition [Asc]; conditions: second compound 1 µM; first compound 0.000316 µM; stronger effect = lower value
Below, each entry is listed alongside its reported viability, T/C.
State just the number; it will be interpreted in %.

See these solved cases before continuing.
Query: Look up viability, T/C for this molecule: NC1CCC(NC2CC2c2ccccc2)CC1 (centres undefined) + Cc1c(S(C)(=O)=O)c(-c2cc(F)cc(N3CCN(c4ccc(NS(=O)(=O)c5ccc(NC(CCN6CCC(C(=O)OCCCP(=O)(O)O)CC6)CSc6ccccc6)c(S(=O)(=O)C(F)(F)F)c5)cc4)CC3)c2)c(-c2ccc(Cl)cc2)n1C(C)C
Response: 97.6

Query: Record: Cn1ncnc1[C@H]1c2n[nH]c(=O)c3cc(F)cc(c23)N[C@@H]1c1ccc(F)cc1 + Cc1c(S(C)(=O)=O)c(-c2cc(F)cc(N3CCN(c4ccc(NS(=O)(=O)c5ccc(NC(CCN6CCC(C(=O)OCCCP(=O)(O)O)CC6)CSc6ccccc6)c(S(=O)(=O)C(F)(F)F)c5)cc4)CC3)c2)c(-c2ccc(Cl)cc2)n1C(C)C
Response: 136

Query: Record: NC1CCC(NC2CC2c2ccccc2)CC1 (centres undefined) + CNC(C)C(=O)NC1CN(S(=O)(=O)c2cccc(S(=O)(=O)N3CCC4CCC(C(=O)NC(c5ccccc5)c5ccccc5)N4C(=O)C(NC(=O)C(C)NC)C3)c2)CCC2CCC(C(=O)NC(c3ccccc3)c3ccccc3)N2C1=O
Response: 91.5

Further cases:
Query: Look up viability, T/C for this molecule: Cn1ncnc1[C@H]1c2n[nH]c(=O)c3cc(F)cc(c23)N[C@@H]1c1ccc(F)cc1 + CNC(C)C(=O)NC1CN(S(=O)(=O)c2cccc(S(=O)(=O)N3CCC4CCC(C(=O)NC(c5ccccc5)c5ccccc5)N4C(=O)C(NC(=O)C(C)NC)C3)c2)CCC2CCC(C(=O)NC(c3ccccc3)c3ccccc3)N2C1=O
Response: 85

* * *

tested on: 171881-019-R-J1-PDC complex spheroid growth, % test/control; assay: Anticancer human tumor 171881-019-R-J1-PDC cell line growth inhibition [Asc]; conditions: second compound 0.316 µM; first compound 0.949 µM; stronger effect = lower value;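 further: spheroids exposed to compounds for 7 days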
readout_name: viability, T/C

Query: Look up viability, T/C for this molecule: CCN1C(C(=O)NC23CCC(C(=O)O)(CC2)CC3)C(c2cccc(Cl)c2F)C2(C(=O)Nc3cc(Cl)ccc32)C12CCCCC2 (centres undefined) + CNC(C)C(=O)NC1CN(S(=O)(=O)c2cccc(S(=O)(=O)N3CCC4CCC(C(=O)NC(c5ccccc5)c5ccccc5)N4C(=O)C(NC(=O)C(C)NC)C3)c2)CCC2CCC(C(=O)NC(c3ccccc3)c3ccccc3)N2C1=O
Response: 99%

Query: Record: CCN1C(C(=O)NC23CCC(C(=O)O)(CC2)CC3)C(c2cccc(Cl)c2F)C2(C(=O)Nc3cc(Cl)ccc32)C12CCCCC2 (centres undefined) + Cc1c(S(C)(=O)=O)c(-c2cc(F)cc(N3CCN(c4ccc(NS(=O)(=O)c5ccc(NC(CCN6CCC(C(=O)OCCCP(=O)(O)O)CC6)CSc6ccccc6)c(S(=O)(=O)C(F)(F)F)c5)cc4)CC3)c2)c(-c2ccc(Cl)cc2)n1C(C)C
Response: 144%

Query: Record: Cc1nc(N2CCC3(CC2)COC(C)C3N)c(CO)nc1Sc1ccnc(N)c1Cl (centres undefined) + CNC(C)C(=O)NC1CN(S(=O)(=O)c2cccc(S(=O)(=O)N3CCC4CCC(C(=O)NC(c5ccccc5)c5ccccc5)N4C(=O)C(NC(=O)C(C)NC)C3)c2)CCC2CCC(C(=O)NC(c3ccccc3)c3ccccc3)N2C1=O
Response: 181%

Please examine the following record next.
Query: Look up viability, T/C for this molecule: Cc1nc(N2CCC3(CC2)COC(C)C3N)c(CO)nc1Sc1ccnc(N)c1Cl (centres undefined) + Cc1c(S(C)(=O)=O)c(-c2cc(F)cc(N3CCN(c4ccc(NS(=O)(=O)c5ccc(NC(CCN6CCC(C(=O)OCCCP(=O)(O)O)CC6)CSc6ccccc6)c(S(=O)(=O)C(F)(F)F)c5)cc4)CC3)c2)c(-c2ccc(Cl)cc2)n1C(C)C
Response: 97.3%
